- assayed_system: C-X-C chemokine receptor type 6 (Homo sapiens) (UniProt O00574)
- Sequence (O00574 whole entry, looked up): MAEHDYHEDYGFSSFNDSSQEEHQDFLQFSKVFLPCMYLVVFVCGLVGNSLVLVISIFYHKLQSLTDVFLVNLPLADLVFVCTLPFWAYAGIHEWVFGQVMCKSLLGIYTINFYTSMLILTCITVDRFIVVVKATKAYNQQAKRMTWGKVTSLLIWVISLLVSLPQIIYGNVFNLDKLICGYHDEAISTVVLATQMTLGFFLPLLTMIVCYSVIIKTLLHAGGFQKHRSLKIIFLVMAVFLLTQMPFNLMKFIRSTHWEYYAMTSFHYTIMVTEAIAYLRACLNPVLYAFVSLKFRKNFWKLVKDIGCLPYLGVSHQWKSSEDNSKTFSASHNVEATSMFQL
- protocol_notes: blockade of CXCL16-induced CXCR6 beta-arrestin recruitment – cell-based, luminescence, CHO-K1 PathHunter, 1536-well, primary screen (AID 602244);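 also: antagonist mode with CXCL16 agonist at 10 nM final; 0% = 10 nM CXCL16 with DMSO and 100% = unstimulated wells without agonist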
- experimental_context: at 20 µM, stronger effect = higher value
In all, about 360,000 compounds went through this assay and about 1,300 (0.36%) were called active. This excerpt belongs to a sample that is enriched for actives.
List of inhibition values.
A number alone suffices; assume %.

# mol, inhibition, %
measured = [
    ("Cc1cccc(C(=O)Nc2ccc(Oc3cnccn3)cc2)c1", 1.5),
]

input: Using the record for `Cc1c(C(=O)NCCN(C)C)oc2ccc(S(=O)(=O)N3CCCC3)cc12` , report its inhibition.
output: 65.9

input: Record: `COc1ccc(NC(=O)c2oc3ccc(S(=O)(=O)N4CCOCC4)cc3c2C)cc1`
output: -0.9

input: Repeat with `Cc1noc(C)c1C(=O)N(CC(=O)NC1CCCC1)Cc1ccccc1F`
output: -0.5

input: Proceed to `COC(=O)c1ccccc1N=NNc1ccc([N+](=O)[O-])cc1`
output: -5.2

input: Also `NC(=O)C1=C[C@@H](c2ccc3c(c2)OCO3)C[C@@H](OCCCCO)O1` , if possible.
output: 1.5

* * *

Consider the following molecules and their measured inhibition readings.
- assayed_system: C-X-C chemokine receptor type 6 (Homo sapiens)
- protocol_notes: blockade of CXCL16-induced CXCR6 beta-arrestin recruitment – cell-based, luminescence, CHO-K1 PathHunter, 1536-well, primary screen (AID 602244)
- experimental_context: at 20 µM, stronger effect = higher value
Screen size: about 360,000 compounds; about 1,300 (0.36%) were called active. The entries come from a sample that favours actives as a whole.
The reply should contain only the number, in %.

The following molecules have reported results that may help.
# molecule, readout_kind, reading_unit, endpoint_result
rows = [
    ("CCN(CC)CCN1C(=O)C2C(C(=O)Nc3ccc(Br)cc3)C3C=CC2(O3)C1C(=O)NC1CCCCC1 (centres undefined)", "inhibition", "%", 7.8),
    ("CCc1cc2c(=O)n(-c3ccccc3)c(SCC(=O)O)nc2s1", "inhibition", "%", -2),
    ("O=C(NCCc1ccccc1)C1CCC(Cn2c(=O)c3ccccc3n(Cc3cccnc3)c2=O)CC1 (centres undefined)", "inhibition", "%", -5.3),
    ("CCN(CC)CCn1c(/N=C/c2cc(Br)ccc2O)nc2ccccc21", "inhibition", "%", 0.9),
    ("CCOCCCN1C(=O)C2C(C(=O)Nc3ccc(OCC)cc3)C3C=CC2(O3)C1C(=O)NC1CCCCC1 (centres undefined)", "inhibition", "%", 74.4),
    ("CC1CCN(CCCNC(=O)CN2C(=O)CSc3ccc(S(=O)(=O)N4CCCCC4)cc32)CC1", "inhibition", "%", 2),
    ("COc1cc(NC(=O)Nc2ccc(C)cc2)cc([N+](=O)[O-])c1", "inhibition", "%", 2.8),
    ("COc1ccc(NC(=O)/C(Cl)=C(/Cl)S(=O)Cc2ccc(C)cc2)cn1 (centres undefined)", "inhibition", "%", 94.9),
]

input: Report inhibition for `CCC(=O)Nc1c(S(=O)(=O)c2ccccc2)c2nc3ccccc3nc2n1Cc1ccccc1` please.
output: -4.6

* * *

Measured inhibition by item
- assayed_system: C-X-C chemokine receptor type 6 (Homo sapiens)
- protocol_notes: blockade of CXCL16-induced CXCR6 beta-arrestin recruitment – cell-based, luminescence, CHO-K1 PathHunter, 1536-well, primary screen (AID 602244);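 also: antagonist mode with CXCL16 agonist at 10 nM final; 0% = 10 nM CXCL16 with DMSO and 100% = unstimulated wells without agonist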
- experimental_context: at 20 µM, stronger effect = higher value
Among all 360,000 compounds or so, about 1,300 (0.36%) were called active. The sample holds actives, similar compounds and a random draw of the others, so the mix is not that of the screen.

# molecule, inhibition
measured = [
    ("COc1ccc(S(=O)(=O)N(C)CC(=O)N2CCCC2)cc1Cl", "-1.8% (inactive)"),
]

input: Find inhibition (C-X-C chemokine receptor type 6 (Homo sapiens)) for the entry `COc1ccc2c(c1)c(=Cc1ccc(N(C)C)cc1)c1cc(-c3ccccc3)[n+](C)n12`
output: 39.6% (active)

input: Please do the same for CSCCC(NC(=O)COc1ccccc1)C(=O)OCc1ccc(Cl)cc1 (configuration not stated) as well.
output: 2.7% (inactive)

* * *

- assayed_system: C-X-C chemokine receptor type 6 (Homo sapiens)
- protocol_notes: blockade of CXCL16-induced CXCR6 beta-arrestin recruitment – cell-based, luminescence, CHO-K1 PathHunter, 1536-well, primary screen (AID 602244);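 also: antagonist mode with CXCL16 agonist at 10 nM final; 0% = 10 nM CXCL16 with DMSO and 100% = unstimulated wells without agonist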
- experimental_context: at 20 µM
In all, about 360,000 compounds went through this assay and about 1,300 (0.36%) were called active. Rule as the data show it: active = inhibition above about 34% (passing the limit was not always enough); inactive = the rest. This excerpt belongs to a sample that is enriched for actives.
Lab note: assign the record to one of active, inactive

Example entries and their recorded answers appear below.
# compound, class
rows = [
    ("Nc1nc2c(ncn2[C@@H]2O[C@H](CNCc3ccc(OCCCN4CCOCC4)cc3)[C@@H](O)[C@H]2O)c(=O)[nH]1", "inactive"),
    ("COc1cccc(CN(C)CC2CCCN(CCc3ccc(Cl)cc3)C2)c1OC (stereo not drawn)", "inactive"),
    ("CC(C)c1nc2sc3c(c2c(=O)n1N)CC(C)(C)OC3", "inactive"),
    ("Cc1ccc(CCCOC(=O)C[N+]2(C)CCCCC2)cc1", "inactive"),
]

input: Just curious, what result did `O=C(CCS(=O)(=O)c1ccccc1)Nc1nc2c(s1)CCCC2` get here?
output: inactive

input: Similarly, CC(C)N=C1CCCC1C(=S)SSC(=S)C1CCCC1=NC(C)C (stereo not drawn) ?
output: active

input: Now try `O=C(NNC(=S)NCCCN1CCOCC1)c1ccncc1` .
output: inactive

input: Repeat for the following compound: `CCCCn1c(N)c(N(CC(C)C)C(=O)c2cccc(S(=O)(=O)N3CCN(C(C)=O)CC3)c2)c(=O)[nH]c1=O`
output: inactive

input: Same question, COCCN(C(=S)Nc1cccc(Cl)c1C)C(C)c1ccco1 (stereo not drawn) this time
output: inactive

input: // same read-out, input: `CC[C@@H]1Cc2cc(O)ccc2C2=C1c1ccc(O)cc1C[C@H]2CC`
output: inactive

input: Now the compound `O=C(O)c1ccc(NN=CC2=C(N3CCOCC3)/C(=C/c3ccccc3)CC2)cc1`
output: inactive

input: Queued: `CC(C)OC(=O)CN1C(=O)C(=O)c2ccccc21`
output: active

input: Here is the next compound: CC(Oc1cccc(Cl)c1)C(=O)Nc1ccc(S(=O)(=O)Nc2ncccn2)cc1 (stereo not drawn)
output: inactive

input: Consider next the compound O=C(NCCc1ccccc1)c1ccc(NC2=NC3CS(=O)(=O)CC3S2)cc1 (stereo not drawn) in the same way.
output: inactive

input: Next entry: COc1ccc(C2/C=C\CN(S(=O)(=O)c3cccs3)CC(=O)N2Cc2ccc(F)cc2)cc1 (stereo not drawn)
output: inactive

input: Note, next up: `CN(O)C(=S)c1ccccc1`
output: active

input: Same thing, different compound: `CCn1cc(C(=O)N2CC=C(c3ccccc3)CC2)c(=O)c2ccc(C)nc21`
output: inactive

input: // same read-out, input: `CCOc1ccc(CN2CCC(n3nccc3NC(=O)C3CC3)CC2)cc1CO`
output: inactive

* * *

- assayed_system: C-X-C chemokine receptor type 6 (Homo sapiens)
- protocol_notes: blockade of CXCL16-induced CXCR6 beta-arrestin recruitment – cell-based, luminescence, CHO-K1 PathHunter, 1536-well, primary screen (AID 602244);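 also: antagonist mode with CXCL16 agonist at 10 nM final; 0% = 10 nM CXCL16 with DMSO and 100% = unstimulated wells without agonist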
- experimental_context: at 20 µM
In all, about 360,000 compounds went through this assay and about 1,300 (0.36%) were called active. Rule as the data show it: active = inhibition above about 34% (passing the limit was not always enough); inactive = the rest. Shown is part of a subset that was picked to be rich in actives.
Valid outcomes are listed here; reply with one: Yes = active, No = inactive

Example cases with answers are listed next.
# mol, assayed_system, class
measured = [
    ("CCOn1c(=O)c(=O)n(O)c2ccccc21", "C-X-C chemokine receptor type 6 (Homo sapiens)", "No"),
    ("CCCCN(C)CCNC(=O)CSCc1ccc(C)cc1", "C-X-C chemokine receptor type 6 (Homo sapiens)", "No"),
]

input: Which outcome was entered for the compound `Cc1ccc(/C=N/NC(=O)C2=NNC(c3ccccc3)(c3ccccc3)C2)c(O)c1` in this test?
output: Yes

input: Now the same for `Cc1ccc(NC(=O)CCC(=O)N/N=C/c2ccco2)c(C)c1`
output: No

input: Try this compound next: `O=S(=O)(NCc1ccccc1Br)c1ccccc1Br`
output: No

input: Also need `CCOC(=O)C1CCN(C(=O)c2oc3ccc(S(=O)(=O)N4CCCCCC4)cc3c2C)CC1` , thanks.
output: No

input: Param item: `CCN(CC)Cc1csc2ccc(Br)cc12`
output: No

input: // repeat for `Cc1ccc(/C=N/NC(=O)CSc2nc3ccccc3o2)cc1` and report
output: No

input: Here is the next compound: `CCCC(=O)Nc1ncnc2c1ncn2[C@@H]1O[C@@H]2OP(=O)(O)OC[C@H]2[C@H]1OC(=O)CCC`
output: No

input: Query `COc1cccc(NC(=O)C(=O)c2cn(CC(=O)N3CCOCC3)c3ccccc23)c1` next
output: No

input: Then `Cc1noc(C)c1CSCC(=O)N(CCC(C)C)c1c(N)n(Cc2ccccc2)c(=O)[nH]c1=O` ?
output: No
